# measurement-protocol: chemical genetic growth profiling, strain panel (AID 1159580);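 further: tested at 20 µM; growth read once vehicle control cultures reached saturation at 30 °C; 1 = growth at the plate median or of vehicle wells; lower values mean less growth of the strain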
# experimental-context: S. cerevisiae deletion strains, growth OD, locus YKL160W, strain elf1, active compounds read low
Hit rate of the full screen: of about 5,500 compounds, about 2,000 (36%) were called active. About 18% were inconclusive and are not listed. The list shows a part of the results.
Please respond with reported normalized growth for every item in the list.
Numbers only.

                                   compound  numeric_result
0  CC(C)=CC1C(CO)C1(C)C (configuration not stated)            1.01

Look at each compound and report its normalized growth.
1. C=CCSCC=C
2. CC1(C)S[C@@H]2[C@H](NC(=O)[C@@H](N)c3ccc(O)cc3)C(=O)N2[C@H]1C(=O)O
3. NC(=O)c1ccccc1O
4. O=C(O)c1ccccc1O
5. COc1ccc(-c2cc(=O)c3c(O)cc(O)c(-c4cc(-c5cc(=O)c6c(O)cc(O)cc6o5)ccc4OC)c3o2)cc1
6. O=c1c(O)cc([C@H]2Oc3cc(O)cc(O)c3C[C@H]2O)cc2c([C@H]3Oc4cc(O)cc(O)c4C[C@H]3O)cc(O)c(O)c12

1: 1; 2: 1.01; 3: 0.985; 4: 0.971; 5: 0.998; 6: 1.01

====

# measurement-protocol: chemical genetic growth profiling, strain panel (AID 1159580);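 further: tested at 20 µM; growth read once vehicle control cultures reached saturation at 30 °C; 1 = growth at the plate median or of vehicle wells; lower values mean less growth of the strain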
# experimental-context: S. cerevisiae deletion strains, growth OD, locus YCL016C, strain dcc1
Out of some 5,500 compounds screened, about 2,000 (36%) were called active. Another 18% or so got no clear call; they are omitted. Rule as the data show it: active = normalized growth mostly below about 0.91 (no sharp cut-off); inconclusive = no clear call, values can overlap the other calls; inactive = mostly above about 0.92. Some of the results follow.
Write down one outcome, taken from y (active), n (inactive)

molecule	class-assignment
C[C@]12CCC3C(CC[C@]4(O)C[C@@H](O)CC[C@]34C=O)[C@@]1(O)CCC2C1=CC(=O)OC1 (stereo partly specified)	n
CCC(=O)OCC(=O)[C@@]1(OC(=O)CC)[C@@H](C)CC2C3CCC4=CC(=O)C=C[C@]4(C)C3(F)[C@@H](O)C[C@@]21C (stereo partly specified)	n
CCC(=O)OCC(=O)C1(OC(=O)CC)C(C)CC2C3CCC4=CC(=O)C=CC4(C)C3(Cl)C(O)CC21C (stereo unspecified)	n
COc1ccc(-c2cc(=O)c3c(O)c(OC)c(O[C@H]4O[C@H](CO[C@@H]5O[C@@H](C)[C@H](O)[C@@H](O)[C@H]5O)[C@@H](O)[C@H](O)[C@H]4O)cc3o2)cc1	n
COP(N)(=O)SC (stereo unspecified)	n
NCCCN	n
C[C@H]1O[C@@H](O[C@H]2[C@@H](O)C[C@H](O[C@H]3[C@@H](O)C[C@H](O[C@H]4CC[C@]5(C)C6C[C@@H](O)[C@]7(C)[C@@H](C8=CC(=O)OC8)CC[C@]7(O)C6CC[C@@H]5C4)O[C@@H]3C)O[C@@H]2C)C[C@H](O)[C@@H]1O (stereo partly specified)	n
C[C@@H]1CCC2[C@](C)(CO)[C@@H](O)CC[C@]2(C)[C@@]12CC[C@@](CO)(CCO)O2 (stereo partly specified)	n
CC(=O)O[C@@H]1c2c(ccc3ccc(=O)oc23)OC(C)(C)[C@@H]1OC(=O)CC(C)C	n
OC1(c2ccc(Cl)c(C(F)(F)F)c2)CCN(CCCC(c2ccc(F)cc2)c2ccc(F)cc2)CC1	y

# ---- query molecule ----
Check the results log: what was the call for CC1=C2C(O)C(=O)OC3CC4C(C)(C)C(=O)C=C[C@]4(C)C(CC1)[C@]23C (stereo partly specified) ?
n

====

# measurement-protocol: chemical genetic growth profiling, strain panel (AID 1159580);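 further: tested at 20 µM; growth read once vehicle control cultures reached saturation at 30 °C; 1 = growth at the plate median or of vehicle wells; lower values mean less growth of the strain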
# experimental-context: S. cerevisiae deletion strains, growth OD, locus YPR119W, strain clb2, active compounds read low
Out of some 5,500 compounds screened, about 2,000 (36%) were called active. About 18% were inconclusive and are not listed. The list shows a part of the results.
Please respond with reported normalized growth for every item in the list.
Answers are plain numbers.

# example entries with known answers
molecule	normalized growth
CSCCC(N)C(=O)NC(CC(C)C)C(=O)NC(Cc1ccccc1)C(=O)O (stereo not drawn)	0.985
NCCCN	0.986
CC(=O)OC1CC[C@@]2(C)C(CCC3C2CC[C@]2(C)C(C4=CC(=O)OC4)C(OC(C)=O)CC32O)C1 (stereo partly drawn)	1.01
CC(C)Nc1nc(Cl)nc(NC(C)C)n1	1.01
CC(=O)O[C@@H]1CC2C(C)(C)CCC[C@]2(C)C2CC[C@]3(C)C(=CC(=O)O[C@H]3c3ccoc3)[C@@]21C (stereo partly drawn)	0.985
CC1CCCC(C)N1NC(=O)c1ccc(Cl)c(S(N)(=O)=O)c1 (stereo not drawn)	0.99
CCCCCC(O)C1C(=O)OC(C)C(O)/C=C/C=C/C=C/C=C/C=C(\C)C(O)CC(O)CC(O)CC(O)CC(O)CC(O)CC1O (stereo not drawn)	1.02
C[C@H]1O[C@@H](O[C@H]2[C@@H](O)C[C@H](O[C@H]3[C@@H](O)C[C@H](O[C@H]4CC[C@]5(C)C6CC[C@]7(C)[C@@H](C8=CC(=O)OC8)CC[C@]7(O)C6CC[C@@H]5C4)O[C@@H]3C)O[C@@H]2C)C[C@H](O)[C@@H]1O (stereo partly drawn)	0.981
NCCCCN	0.994
O=C(O)c1cc(O)ccc1O	0.994

Look at each molecule and report its normalized growth.
1. NC[C@@H]1O[C@H](O[C@@H]2[C@@H](CO)OC(O[C@@H]3[C@@H](O)[C@H](N)C[C@H](N)[C@H]3O[C@H]3O[C@H](CO)[C@@H](O)[C@H](O)[C@H]3N)[C@@H]2O)[C@H](N)[C@@H](O)[C@@H]1O (stereo partly drawn)
2. CC(C)(C)NCC(O)COc1cccc2c1C[C@H](O)[C@H](O)C2 (stereo partly drawn)
3. Cc1c(OCC(F)(F)F)ccnc1CS(=O)c1nc2ccccc2[nH]1 (stereo not drawn)
4. COC(=O)[C@H]1[C@H]2C[C@H]3c4[nH]c5cc(OC)ccc5c4CCN3C[C@H]2C[C@@H](OC(=O)c2cc(OC)c(OC)c(OC)c2)[C@@H]1OC
5. COC1=CC(C)[C@@H]2C[C@H]3OC(=O)C[C@H]4C(C)=C(OC)C(=O)C([C@@]34C)[C@@]2(C)C1=O (stereo partly drawn)
6. C[C@H]1O[C@@H](O[C@H]2[C@@H](O)C[C@H](O[C@H]3[C@@H](O)C[C@H](O[C@H]4CC[C@]5(C)C6C[C@@H](O)[C@]7(C)[C@@H](C8=CC(=O)OC8)CC[C@]7(O)C6CC[C@@H]5C4)O[C@@H]3C)O[C@@H]2C)C[C@H](O)[C@@H]1O (stereo partly drawn)
7. NCC(O)CC(=O)O (stereo not drawn)

1. 0.99
2. 0.996
3. 0.996
4. 0.994
5. 1.01
6. 1
7. 0.996

Look at each molecule and report its normalized growth.
1. CC1(C)O[C@@H]2CC3C4C[C@H](F)C5=CC(=O)CC[C@]5(C)C4[C@@H](O)C[C@]3(C)[C@]2(C(=O)CO)O1 (stereo partly drawn)
2. NC(N)=Nc1ccc(Cl)cc1
3. COc1c(O)cc2c(c1O)[C@H]1O[C@H](CO)[C@@H](O)[C@H](O)[C@@H]1OC2=O

1
0.988
1.01

Look at each molecule and report its normalized growth.
1. COC(=O)C(N)CS (stereo not drawn)
2. C[C@H]1OC(O[C@H]2[C@@H](O)CC(O[C@H]3[C@@H](O)C[C@H](O[C@H]4CC[C@]5(C)C6CC[C@]7(C)[C@@H](C8=CC(=O)OC8)[C@@H](O)C[C@]7(O)[C@@H]6CC[C@@H]5C4)O[C@@H]3C)O[C@@H]2C)C[C@H](O)C1O (stereo partly drawn)

1. 0.977
2. 0.996

====

Please respond with reported normalized growth for every item in the list.
# measurement-protocol: chemical genetic growth profiling, strain panel (AID 1159580);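 further: tested at 20 µM; growth read once vehicle control cultures reached saturation at 30 °C; 1 = growth at the plate median or of vehicle wells; lower values mean less growth of the strain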
# experimental-context: S. cerevisiae deletion strains, growth OD, locus YOR106W, strain vam3, active compounds read low
The whole screen tested about 5,500 compounds, of which about 2,000 (36%) were called active. Not shown: some 18% with an inconclusive outcome. The list shows a part of the results.
Numbers only.

# example entries with known answers
In [3]: df
Out[3]:
                                   compound  numeric_result
0  O=c1c2cc(O)c(O)cc2oc2cc(O)c(C3O[C@H](CO)[C@H](O)[C@@H](O)[C@H]3O)c(O)c12 (some centres not stated)           0.887
1      C[N+]1(C)C[C@H](O)[C@H](C(=O)[O-])C1           0.996
2  CC(C)C[C@@H](NC(=O)OCC1c2ccccc2-c2ccccc21)C(=O)O           0.963
3  COc1ccc(-c2cc(=O)c3c(O)c(OC)c(OC)c(OC)c3o2)cc1OC           0.954
4  COc1ccc(-c2cc(=O)c3c(O)cc(O)c(-c4cc(-c5cc(=O)c6c(O)cc(O)cc6o5)ccc4OC)c3o2)cc1           0.973

Look at each compound and report its normalized growth.
1. COC(=O)C(N)CS (configuration not stated)
2. COc1cc(O)c2c(=O)cc(-c3ccc(OC)c(-c4c(O)cc(O)c5c(=O)cc(-c6ccc(O)cc6)oc45)c3)oc2c1
3. OC1(c2ccc(Cl)c(C(F)(F)F)c2)CCN(CCCC(c2ccc(F)cc2)c2ccc(F)cc2)CC1
4. CCCc1nn(C)c2c(=O)[nH]c(-c3cc(S(=O)(=O)N4CCN(C)CC4)ccc3OCC)nc12
5. O=C1CC2(CCCC2)CC(=O)N1CCCCN1CCN(c2ncccn2)CC1

1. 0.949
2. 0.983
3. 0.0691
4. 0.987
5. 0.997

Look at each compound and report its normalized growth.
1. CC1=CC(=O)C2C(C)(C)CCC[C@]2(C)[C@@]1(O)CCc1ccoc1 (some centres not stated)
2. O=C(CCCN1CCN(c2ccccn2)CC1)c1ccc(F)cc1

[1, 0.905]
